Every entry's value here was drawn from patent US20260248972A1.

Assay: in vivo
Details: BALB/c nude, mouse, in vivo, iv, total radioactivity, uptake Liver
observed.property: tissue uptake at 24 h

Query block: // tissue uptake at 24 h lookup, key: C[C@@H](O)[C@H](NC(=O)[C@@H]1CSSC[C@H](NC(=O)[C@@H](Cc2ccccc2)NC(=O)CNC(=O)COCCOCCNC(=O)[C@H](CCCCNC(=O)c2cccc(NC(=O)N[C@@H]3CN(C4CCCCC4)c4ccccc4N(CC(=O)C(C)(C)C)C3=O)c2)NC(=O)CN2CCN(CC(=O)O)CCN(CC(=O)O)CCN(CC(=O)O)CC2)C(=O)N[C@@H](Cc2ccc(O)cc2)C(=O)N[C@H](Cc2c[nH]c3ccccc23)C(=O)N[C@@H](CCCCN)C(=O)N[C@@H]([C@@H](C)O)C(=O)N1)C(=O)O [Compound I-53, DOTA-K(Z360)-OEG-G-f[CYwKTC]T-OH]
Result block: 2.57 %ID/g
